test: Relaxivity measurements at 1.4 T (MiniSpec mq60, 60 MHz, 37 °C) in water and human plasma; type: physicochemical; conditions: 1.41 T, human plasma, normalized to Gd
metric: r1 human plasma (L/mmol/s)

O=C([O-])CN1CCN(CC(=O)[O-])CCN(CC(=O)N(CC(=O)NCC(CNC(=O)CN(C(=O)CN2CCN(CC(=O)[O-])CCN(CC(=O)[O-])CCN(CC(=O)[O-])CC2)c2ccccc2)(CNC(=O)CN(C(=O)CN2CCN(CC(=O)[O-])CCN(CC(=O)[O-])CCN(CC(=O)[O-])CC2)c2ccccc2)CNC(=O)CN(C(=O)CN2CCN(CC(=O)[O-])CCN(CC(=O)[O-])CCN(CC(=O)[O-])CC2)c2ccccc2)c2ccccc2)CCN(CC(=O)[O-])CC1.[Gd+3].[Gd+3].[Gd+3].[Gd+3]    12.0
